Source of measurements: ChEMBL document CHEMBL1201862

- Tested on: EKVX
- experiment.description: NCI tumour cell line growth inhibition, 48 h
Active and inactive are the calls of the source. Rule as the data show it: active = GI50 up to about 1.1 µM and inactive = higher.
property: GI50

| molecule | result |
| --- | --- |
| C=C1C(=O)C2=C[C@H]1C[C@H](O)C(=O)[C@]1(C)CCCC(C)(C)[C@H]1C[C@H]2O | 1.73 µM (inactive) |
| O=C(Nc1cc(Cl)c(Cl)cc1Cl)C(=O)C1C=CCS1(=O)=O (configuration not stated) | > 100 µM (inactive) |
| O=C(NCC(=O)N1CCCC1C(=O)OC(=O)C1CCCN1C(=O)CNC(=O)OCc1ccccc1)OCc1ccccc1 (configuration not stated) | 42.8 µM (inactive) |
| CSc1ncc2c(n1)C(C#N)C1Sc3ccccc3N1C2=O (configuration not stated) | > 100 µM (inactive) |
| ClC1(Cl)C(c2ccccc2)C1c1ccccc1 (configuration not stated) | 18.3 µM (inactive) |
| COC(=O)C1=C(C(=O)OC)C2OC1C1C2C2(C)C(C)=C(C)C1(C)[S+]2[O-] (configuration not stated) | 11.5 µM (inactive) |

Report GI50 for each item below.
1. COc1cc(/C=N\O[Si](C)(C)C(C)(C)C)ccc1O[Si](C)(C)C(C)(C)C
2. O=C(O)C(C(=O)O)P(=S)(S)c1ccccc1 (configuration not stated)
3. O=[N+]([O-])c1ccccc1S(=O)(=O)N1CCCc2cc(Cl)ccc21
4. c1cn[nH]c1
5. O=C(O)c1cc(NC2=C(Cl)C(=O)c3c(O)ccc(O)c3C2=O)ccc1O
6. COc1ccc(-c2onc(-c3c(C)cc(C)cc3C)c2C2=NCCCN2)cc1

[out]
1: > 100 µM (inactive); 2: > 100 µM (inactive); 3: 77.4 µM (inactive); 4: > 10 µM (inactive); 5: > 10 µM (inactive); 6: 96.8 µM (inactive)

----------
- Tested on: EKVX
- experiment.description: NCI tumour cell line growth inhibition, 48 h
Active and inactive are the calls of the source. Rule as the data show it: active = GI50 up to about 1.1 µM and inactive = higher.
property: GI50

As a guide, the following entries are already answered.
| molecule | result |
| --- | --- |
| COC(OC)C1OC(CO)C(n2ccc(N)nc2=O)C1O (configuration not stated) | > 100 µM (inactive) |
| c1ccc(N/N=C2\CC(c3ccccc3)Oc3ccccc32)cc1 (configuration not stated) | 21.9 µM (inactive) |
| CCCCCCCCCC(=O)CC(=O)c1ccc(O)cc1O | 25.9 µM (inactive) |
| COCCOC1=C(Cl)C(=O)c2c(O)ccc(O)c2C1=O | 4.97 µM (inactive) |
| CC1=NN2C(=O)CC(=O)N=C2S1 | > 100 µM (inactive) |

Report GI50 for each item below.
1. O=S1(=O)OCCOS(=O)(=O)C1(Cl)Cl
2. Brc1ccc2[nH]cc([C@H]3CN[C@@H](c4c[nH]c5ccc(Br)cc45)CN3)c2c1
3. Cc1cc(Cl)nc2nc(Cl)c(N)cc12

[out]
1. > 100 µM (inactive)
2. 2.61 µM (inactive)
3. 3.48 µM (inactive)

----------
- Test system: XF498
- experiment.description: NCI tumour cell line growth inhibition, 48 h
Calls of active or inactive are those of the source. No stated cut-off is given here; in the data, active = GI50 up to about 1.1 µM and inactive = higher. Where a SMILES comes first, the peptide text is derived from it. [ ]: non-standard residue; d: D form. The star is where a group is joined. ξ: configuration not given here. NMeF = CN[C@@H](Cc1ccccc1)C(=O)O; NMeV = CN[C@H](C(=O)O)C(C)C; ξNMeN = CNC(CC(N)=O)C(=O)O; NMeA = CN[C@@H](C)C(=O)O; ξNMeV = CNC(C(=O)O)C(C)C; Boc = CC(C)(C)OC(=O)*
property: GI50

| molecule | GI50 |
| --- | --- |
| CCOC(=O)C(Cc1c[nH]c2cc([N+](=O)[O-])ccc12)NS(=O)(=O)c1ccc2ccccc2c1 (stereo unspecified) | 17.3 µM (inactive) |

Report GI50 for each item below.
1. COc1ccc(CCNCCCC2c3ccccc3-c3ccccc32)cc1OC
2. CCOC(=O)NC(=O)c1cn(C2OC(COC(=O)CCCCCCCCC(=O)OCC3OC(n4cc(C(=O)NC(=O)OCC)c(=O)[nH]c4=O)C4OC(C)(C)OC34)C3OC(C)(C)OC32)c(=O)[nH]c1=O (stereo unspecified)

[out]
14.7 µM (inactive)
67.1 µM (inactive)

Report GI50 for each item below.
1. O=[N+]([O-])c1ccc(/C=N/C2CCCCC2)cc1
2. COC(=O)[C@H](C)N(C)C(=O)C(CC(N)=O)N(C)C(=O)[C@H](Cc1ccccc1)N(C)C(=O)[C@@H]1CCCN1C(=O)[C@H](C(C)C)N(C)C(=O)C(C(C)C)N(C)C(=O)[C@@H](NC(=O)OC(C)(C)C)C(C)C (stereo partly specified) (Boc-V[ξNMeV][NMeV]P[NMeF][ξNMeN][NMeA]-OMe)

[out]
1: > 100 µM (inactive); 2: 26.7 µM (inactive)
